- Test system: HEK293T
- Method notes: median enrichment of reporter reads in eGFP-reduced (low/intermediate) vs eGFP-high sorted cells (eGFP-extension fusion abundance) (ratio); higher = stronger loss of eGFP-fusion protein abundance (more destabilising extension)
Endpoint name: median enrichment

substance="GRNQQSTSAGQQPREPLPTRIAGSVTEQAG [ETV6]" endpoint_name="median enrichment" value_reported=4.01
substance="WASSPPAHVMKQRFGLVAHCLWPPSPAQPQASQPQTLESPTTMERWAVAMVDGLPGWAFELALGTTRLSLSSHGTQKCAAMLP [ADGRG1]" endpoint_name="median enrichment" value_reported=5.77
substance="QEMWSLRCLKSTTMPGIEEDYYLKQWALVFGASDMPSILPSWN [G6PC]" endpoint_name="median enrichment" value_reported=10.6
substance="GSVQGFLGPSCLS [KCNA10]" endpoint_name="median enrichment" value_reported=0.463
substance="YVAMVKVSVAAAAMASRRRCWDCFALEPASGCPLQWLCYCMDCILDFMCMSQ [DYNLL2]" endpoint_name="median enrichment" value_reported=10.8

Lab note: measured median enrichment of SCNPTRAHFIIAETSVCIPVITHCNRATN [IDO1] was 4.95

Lab note: measured median enrichment of SVGSPSKPRPLKPPLAAPRSSHYLCPEGGKSFPAHPPR [BCL7C] was 1.39

Lab note: measured median enrichment of LVSCLKGGNRKSRLLSVKFVLPVCC [PCMTD2] was 7.69

Lab note: measured median enrichment of RELTCETSA [FOXP2] was 0.325

Lab note: measured median enrichment of CLSTVLFS [SUDS3] was 5.55

Lab note: measured median enrichment of VSHAYAHAQPPSGSLESRADTHSHTHCLAKNTPCLPCHSPHSHSLSPDPCLSLDCRGTTHLFGIQGPQPTVPSPINCSRAPHK [FOXP3] was 2.58

Lab note: measured median enrichment of CGRPELSRPPPALLGAGVLDPWHLPGPLT [LLGL1] was 2.46

Lab note: measured median enrichment of YGWGRVAASFVPTGGSHNSFDL [ELP5] was 5.96

Lab note: measured median enrichment of YAVGTESEYF [GFRA2] was 0.617

Lab note: measured median enrichment of GGLLPLGPLTLSGWWTTKYNPVYNLKIYFTFVLLYLFIKG [SMAD4] was 5.18

----------
- System: HEK293T
- Method notes: median enrichment of reporter reads in eGFP-reduced (low/intermediate) vs eGFP-high sorted cells (eGFP-extension fusion abundance) (ratio); higher = stronger loss of eGFP-fusion protein abundance (more destabilising extension)
Endpoint name: median enrichment

As a guide, the following entries are already answered.
sequence_input="LINARSHPMIILNYSHYF [LRRIQ3]" endpoint_name="median enrichment" value_reported=6.8
sequence_input="LRSRRDEAASPFSASPPAQGPSGGACRTCPGTVAPQACLSCRVPMAWSLHLTDWSPLPDSHFQKLGGRDTWKTPVTSFLLRA [DPM2]" endpoint_name="median enrichment" value_reported=4.89

Turning now to a further record.
Lab note: measured median enrichment of SEPQLTKSACPRTAPALELGARAAELVFGPQRRIQNQKLKSDVRWAPAPSAESRQGEAGWSQAPSHAAPKSWTHLWGAPHLHL [MYO9B] was 7.17

----------
Each item that follows carries a reported median enrichment.
- Test system: HEK293T
- Method notes: median enrichment of reporter reads in eGFP-reduced (low/intermediate) vs eGFP-high sorted cells (eGFP-extension fusion abundance) (ratio); higher = stronger loss of eGFP-fusion protein abundance (more destabilising extension)
Answer with the value's number alone.

sequence_input="FLQRTALIFRFKRLPTR [Degron UPS]" value_reported=6.83

Lab note: measured median enrichment of LRCQLPSEQAGGICHTAPPLG [SMPD4] was 2.92

Lab note: measured median enrichment of LTFQDEWFILSNLLLTEQSSEPFNFKLHQLCAEPWCKVLSHSFFLSVEFGAIVSGT [ATAD2B] was 6.97

Lab note: measured median enrichment of SEVRACAMCETGKLGAQFEFFLFFFFLSTKNTLMVNTGQNQERMCSFQGLGQNL [GAB3] was 7.14

----------
- Tested on: HEK293T
- Method notes: median enrichment of reporter reads in eGFP-reduced (low/intermediate) vs eGFP-high sorted cells (eGFP-extension fusion abundance) (ratio); higher = stronger loss of eGFP-fusion protein abundance (more destabilising extension)
Returns the class for an entry based on its median enrichment. Class ranges: Low (below 4), Medium (4 to below 9), High (9 or more)

substance="LRRRMSLRAPSWSGPRHPGTSALPPPALLHHMSS [ADHFE1]" target_desc=HEK293T label_value=High
substance="CFSRGQGGEGASGGVGAGGTVPREPGGSHTRTAPVSSGHCNPVGLFLQHSRSLPSIATLQTPG [SFRP1]" target_desc=HEK293T label_value=Medium

Next up:
Task: Field: class (median enrichment) — entry: YLRTLPFFPLSSLPLPFLPIYPFPSSKSTQGEENKMTTQDLVAKILHSKSSFV [FGF12]
Result: High

----------
Each item that follows carries a reported median enrichment.
- System: HEK293T
- Method notes: median enrichment of reporter reads in eGFP-reduced (low/intermediate) vs eGFP-high sorted cells (eGFP-extension fusion abundance) (ratio); higher = stronger loss of eGFP-fusion protein abundance (more destabilising extension)
Answer with the value's number alone.

As a guide, the following entries are already answered.
sequence_input="QTAKKEKLN [PTMA]" value_reported=0.399
sequence_input="RSNLYVLPKKPKTAFD [C2orf15]" value_reported=1.27
sequence_input="GGGGGGGG [Gly08]" value_reported=1.64
sequence_input="KARFLAVQFLLKVPLFPKSNY [HBB]" value_reported=5.47

Lab note: measured median enrichment of WGRDSVPLAVLPSLLVCQASPPTTPHQATPAASAFLGAERQPRPPVPSPPSHHRSSAPGRTVWPLPVPAMGSGWTPWAPPIAK [CAPN1] was 7.5

Lab note: measured median enrichment of YISHVNLPER [MSMO1] was 15.7

----------
- Test system: HEK293T
- Method notes: median enrichment of reporter reads in eGFP-reduced (low/intermediate) vs eGFP-high sorted cells (eGFP-extension fusion abundance) (ratio); higher = stronger loss of eGFP-fusion protein abundance (more destabilising extension)
Returns the class for an entry based on its median enrichment. Class ranges: low value (below 2), medium value (2 to below 6), high value (6 or more)

substance="QWLSGSMC [LYPD6]" label_value="low value"
substance="KKKKKK [Lys06]" label_value="low value"
substance="GHPTPVPWRGSGPTLHNCLSRTVQTKGPAWKE [SLC37A1]" label_value="medium value"

Task: Field: class (median enrichment) — entry: QPPAILPHPPPSPPVSTWSALPHPPPTELGCITFFHLKERSRF [MROH5]
Result: medium value

Task: Field: class (median enrichment) — entry: QHGGFGS [AKAIN1]
Result: low value

Task: Field: class (median enrichment) — entry: SACPQHLLPPSLGVWIPMELGSAGHNLFLASDLPAIIKWLQIGT [LRRC59]
Result: high value

Task: Field: class (median enrichment) — entry: LTEQLLMSGG [NDUFS5]
Result: medium value

Task: Field: class (median enrichment) — entry: LNCSQLEML [DNAJC24]
Result: low value

Task: Field: class (median enrichment) — entry: YVFLKIKLKKEIFFLIKL [GALNT3]
Result: high value

Task: Field: class (median enrichment) — entry: NNNNNNN [Asn07]
Result: low value

Task: Field: class (median enrichment) — entry: MGNYILLCQGQQTPAVKGIPSARRLFGACMFIAPARPDRGLLHKPCLVHFFTCKGTECGLRFGTRGGFGNYGAQVIILRSFIQ [AHNAK]
Result: high value

Task: Field: class (median enrichment) — entry: SEVLLETKSPSPIAEGGGDPLL [ARID3C]
Result: low value

----------
- Test system: HEK293T;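 further: lentiviral eGFP-IRES-mCherry reporter pool sorted by FACS 96 h post-transduction, gated on mCherry-high cells, Illumina read counts normalized per million, median across four biological replicates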
- Method notes: median enrichment of reporter reads in eGFP-reduced (low/intermediate) vs eGFP-high sorted cells (eGFP-extension fusion abundance) (ratio); higher = stronger loss of eGFP-fusion protein abundance (more destabilising extension)
Endpoint name: median enrichment
Answer with the value's number alone.

As a guide, the following entries are already answered.
substance="CGRTSALSDRTLRAMLPCHP [MRGPRX3]" endpoint_name="median enrichment" value_reported=6.32
substance="RSLRAGPSAAGSCLNTSLDMARTHRDTGQDQPCLWRQDTTIWPMAVTSCRVQSQTGNHHLRQDLPASFTFLISRALPPILCLG [SLC22A13]" endpoint_name="median enrichment" value_reported=6.14
substance="LKNCLEELY [EBF1]" endpoint_name="median enrichment" value_reported=2.5
substance="WEKSYKCKECGKPLDDPQTLMNMRKFIL [ZNF141]" endpoint_name="median enrichment" value_reported=11.7
substance="WFFCFNKQQ [TMEM31]" endpoint_name="median enrichment" value_reported=6.9
substance="CGAARRSR [METAP1D]" endpoint_name="median enrichment" value_reported=1.33
substance="SSMMHGDFHFHIFPFFCFCFSRNGGNPVYSMPVLSYSSLLLYILLLYQKN [HIVEP2]" endpoint_name="median enrichment" value_reported=33.7
substance="YDSPGLKLGSRPAR [PTGDS]" endpoint_name="median enrichment" value_reported=3.48

Lab note: measured median enrichment of SEEPQDHTHSPYPPQDYRTFWHTLYRVLGFTPQNDPTMSTHHQNPANGPPLPPSPDAEMVMGSWRVGSEMKGTPQWAAGPIFP [SLC13A5] was 3.6

Lab note: measured median enrichment of YSASSNLVFSKKNIYYLFLACHFNSSRDFTAGIF [RBM48] was 41.8

Lab note: measured median enrichment of LDLVQHGNDSYRLIQQLTLRQVVLFQRPLFLPKPCYELNQMCQVFSGVLSNILFSCMGTSPLQMTMLMDLFIYLFKSLFS [IFNA8] was 6.11
